assay: Metabolic stability in mouse liver microsomes assessed as intrinsic clearance at 20 uM measured upto 120 mins in presence of NADPH by LC-MS/MS analysis; assay type: ADME, Microsome; conditions: read-out: CLH
recorded-endpoint: microsomal CLint at 20 µM (µL/min/mg)

• Cc1coc2c1C(=O)C(=O)c1c-2ccc2c(C)cccc12 = 65.6

P: Cc1cccc2c3c(ccc12)-c1oc2c(c1C(=O)C3=O)CCN([C@H](CO)CCCO)C2
Q: Cc1cccc2c3c(ccc12)-c1oc2c(c1C(=O)C3=O)CCN(CCO)C2
input: // pick min by microsomal CLint at 20 µM: P , Q Reply briefly: the label of your chosen item.
output: P

###

experiment: Metabolic stability in mouse liver microsomes assessed as half life at 20 uM measured upto 120 mins in presence of NADPH by LC-MS/MS analysis; assay type: ADME, Microsome
recorded-endpoint: half-life at 20 µM (h)

- Cc1cccc2c3c(ccc12)-c1oc2c(c1C(=O)C3=O)CCN([C@H](CO)CCCO)C2: 6.08
- Cc1cccc2c3c(ccc12)-c1oc2c(c1C(=O)C3=O)CCN(CCCN1CCOCC1)C2: 3.04

P: Cc1coc2c1C(=O)C(=O)c1c-2ccc2c(C)cccc12
Q: Cc1cccc2c3c(ccc12)-c1oc2c(c1C(=O)C3=O)CCN(CCO)C2
input: In the pair P and Q , the larger recorded half-life at 20 µM belongs to which? Reply briefly: the label of your chosen item.
output: Q
(Q: 3.03 h, P: 0.352 h)

###

assay: Aqueous solubility of compound incubated for 24 hrs by HPLC analysis; assay type: physicochemical; settings: buffer
recorded-endpoint: solubility (µg/mL)

* Cc1cccc2c3c(ccc12)-c1oc2c(c1C(=O)C3=O)CCN([C@H](CO)CCCO)C2 | 0.45

a: Cc1cccc2c3c(ccc12)-c1oc2c(c1C(=O)C3=O)CCN(CCCN1CCOCC1)C2.Cl
b: Cc1cccc2c3c(ccc12)-c1oc2c(c1C(=O)C3=O)CCN(CCO)C2
c: Cc1cccc2c3c(ccc12)-c1oc2c(c1C(=O)C3=O)CCN(CCCN1CCOCC1)C2
d: Cc1cccc2c3c(ccc12)-c1oc2c(c1C(=O)C3=O)CCN([C@H](CO)CCCO)C2.Cl
e: Cc1cccc2c3c(ccc12)-c1oc2c(c1C(=O)C3=O)CCN(CCO)C2.Cl
input: Provide the items ranked by increasing solubility. Give me the labels in the order the question wants.
output: c, b, e, d, a

###

biological target: NACHT, LRR and PYD domains-containing protein 3 (Mus musculus, UniProt Q8R4B8)
Sequence (Q8R4B8 whole entry, the tested form may be a part): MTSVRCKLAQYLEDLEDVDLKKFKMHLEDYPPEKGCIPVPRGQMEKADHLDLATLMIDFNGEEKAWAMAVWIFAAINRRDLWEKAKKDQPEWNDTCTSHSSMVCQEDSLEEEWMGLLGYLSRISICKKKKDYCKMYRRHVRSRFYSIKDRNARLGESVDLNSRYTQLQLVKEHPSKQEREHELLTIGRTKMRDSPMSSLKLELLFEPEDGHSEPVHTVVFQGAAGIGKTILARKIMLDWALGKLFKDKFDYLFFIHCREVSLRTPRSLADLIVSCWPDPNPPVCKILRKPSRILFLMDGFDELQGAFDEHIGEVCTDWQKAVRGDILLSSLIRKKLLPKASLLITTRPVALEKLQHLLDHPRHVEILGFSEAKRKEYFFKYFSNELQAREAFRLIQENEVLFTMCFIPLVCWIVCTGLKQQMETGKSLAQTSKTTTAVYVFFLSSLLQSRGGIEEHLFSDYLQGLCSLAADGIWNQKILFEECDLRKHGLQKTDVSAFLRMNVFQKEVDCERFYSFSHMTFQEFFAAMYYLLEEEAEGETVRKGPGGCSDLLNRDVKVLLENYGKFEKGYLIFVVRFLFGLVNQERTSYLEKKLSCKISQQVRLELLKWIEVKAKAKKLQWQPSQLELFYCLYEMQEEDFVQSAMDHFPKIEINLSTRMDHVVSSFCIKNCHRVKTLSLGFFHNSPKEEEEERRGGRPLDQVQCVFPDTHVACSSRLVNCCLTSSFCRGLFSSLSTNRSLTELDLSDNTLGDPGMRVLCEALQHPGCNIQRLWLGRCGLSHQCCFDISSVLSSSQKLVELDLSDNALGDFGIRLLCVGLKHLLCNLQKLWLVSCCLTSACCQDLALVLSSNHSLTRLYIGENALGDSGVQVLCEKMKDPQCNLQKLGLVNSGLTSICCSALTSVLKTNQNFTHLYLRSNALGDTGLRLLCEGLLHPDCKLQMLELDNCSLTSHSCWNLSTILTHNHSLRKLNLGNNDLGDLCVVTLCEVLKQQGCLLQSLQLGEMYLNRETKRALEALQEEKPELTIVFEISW
recorded-endpoint: Kd (µM)
Dear colleague, please return just the value in µM, with no unit written.

input: Can you look up Kd on NACHT, LRR and PYD domains-containing protein 3 (Mus musculus, UniProt Q8R4B8) for Cc1cccc2c3c(ccc12)-c1oc2c(c1C(=O)C3=O)CCN(CCCN1CCOCC1)C2 ?
output: 5.87

Taken from ChEMBL document CHEMBL5380810.
